test system: A498; test: Growth inhibition of human A498 cells assessed as cell growth at 10 uM after 48 hrs by sulforhodamine B assay; format: functional; conditions: A498, 48 h, read-out: Activity
measured.property: growth at 10 µM (%)
Report as a plain number; the unit % is understood.

Study these solved cases before continuing.
[
  {
    "smiles.repr": "CC(C)=CCC/C(C)=C/CC/C(C)=C/CC[C@]1(C)CCc2c3c(c(C)c(C)c2O1)OCN(CCc1ccc(O)cc1)C3",
    "unit.of.measure": "%",
    "growth at 10 µM": 90.2
  },
  {
    "smiles.repr": "CC(C)=CCC/C(C)=C/CC/C(C)=C/CC[C@]1(C)CCc2c3c(cc(C)c2O1)OCN(CCCCCCCCO)C3",
    "unit.of.measure": "%",
    "growth at 10 µM": 117
  },
  {
    "smiles.repr": "CC(C)=CCC/C(C)=C/CC/C(C)=C/CC[C@]1(C)CCc2c3c(c(C)c(C)c2O1)OCN(CCCCCCO)C3",
    "unit.of.measure": "%",
    "growth at 10 µM": 111
  },
  {
    "smiles.repr": "COc1ccc(CCN2COc3c(C)c(C)c4c(c3C2)CC[C@@](C)(CC/C=C(\\C)CC/C=C(\\C)CCC=C(C)C)O4)cc1OC",
    "unit.of.measure": "%",
    "growth at 10 µM": 108
  },
  {
    "smiles.repr": "CC(C)=CCC/C(C)=C/CC/C(C)=C/CC[C@]1(C)CCc2c3c(cc(C)c2O1)OCN(CCCCCCO)C3",
    "unit.of.measure": "%",
    "growth at 10 µM": 121
  },
  {
    "smiles.repr": "CC(C)=CCC/C(C)=C/CC/C(C)=C/CC[C@]1(C)CCc2c3c(cc(C)c2O1)OCN(CCCO)C3",
    "unit.of.measure": "%",
    "growth at 10 µM": 106
  },
  {
    "smiles.repr": "COc1ccc(CCNCc2c(O)c(C)c(C)c3c2CC[C@@](C)(CC/C=C(\\C)CC/C=C(\\C)CCC=C(C)C)O3)cc1OC",
    "unit.of.measure": "%",
    "growth at 10 µM": 107
  }
]

Continue with the compound presented below.
Notebook: `CC(C)=CCC/C(C)=C/CC/C(C)=C/CC[C@]1(C)CCc2c3c(c(C)c(C)c2O1)OCN(CCCCO)C3` , growth at 10 µM read as 116

###

system: SNB-19; test: Growth inhibition of human SNB19 cells after 48 hrs by sulforhodamine B assay; assay type: functional; conditions: SNB-19, 48 h
Exam item: assign t to entries whose GI50 is below 2000 nM and f to entries at or above 2000 nM. Note that a value of exactly 2000 nM receives f.

Example results:
[
  {
    "smiles.repr": "CC(C)=CCC/C(C)=C/CC/C(C)=C/CC[C@]1(C)CCc2c3c(cc(C)c2O1)OCN(CCCO)C3",
    "group.label": "t"
  },
  {
    "smiles.repr": "CC(C)=CCC/C(C)=C/CC/C(C)=C/CC[C@]1(C)CCc2c3c(cc(C)c2O1)OCN(CCCCO)C3",
    "group.label": "f"
  },
  {
    "smiles.repr": "CC(C)=CCC/C(C)=C/CC/C(C)=C/CC[C@]1(C)CCc2c3c(c(C)c(C)c2O1)OCN(CCCCCCCCO)C3",
    "group.label": "f"
  },
  {
    "smiles.repr": "CC(C)=CCC/C(C)=C/CC/C(C)=C/CC[C@]1(C)CCc2c3c(cc(C)c2O1)OCN(C1CCN(Cc2ccccc2)CC1)C3",
    "group.label": "t"
  },
  {
    "smiles.repr": "COc1ccc(CCN2COc3cc(C)c4c(c3C2)CC[C@@](C)(CC/C=C(\\C)CC/C=C(\\C)CCC=C(C)C)O4)cc1OC",
    "group.label": "t"
  }
]

Data request: A record lists `CC(C)=CCC/C(C)=C/CC/C(C)=C/CC[C@]1(C)CCc2c3c(c(C)c(C)c2O1)OCN(CCCCCCO)C3` . Is its GI50 below 2000 nM?
Data returned: f

Data request: A record lists `CC(C)=CCC/C(C)=C/CC/C(C)=C/CC[C@]1(C)CCc2c3c(c(C)c(C)c2O1)OCN(CCCCCO)C3` . Is its GI50 below 2000 nM?
Data returned: f

Data request: A record lists `CC(C)=CCC/C(C)=C/CC/C(C)=C/CC[C@]1(C)CCc2c3c(cc(C)c2O1)OCN(CCCCCCCCO)C3` . Is its GI50 below 2000 nM?
Data returned: t

Data request: A record lists `CC(C)=CCC/C(C)=C/CC/C(C)=C/CC[C@]1(C)CCc2c3c(cc(C)c2O1)OCN(CCc1ccc(O)cc1)C3` . Is its GI50 below 2000 nM?
Data returned: f

Data request: A record lists `CC(C)=CCC/C(C)=C/CC/C(C)=C/CC[C@]1(C)CCc2c3c(c(C)c(C)c2O1)OCN(CCCCO)C3` . Is its GI50 below 2000 nM?
Data returned: f

Data request: A record lists `CC(C)=CCC/C(C)=C/CC/C(C)=C/CC[C@]1(C)CCc2c3c(cc(C)c2O1)OCN(CCCCCO)C3` . Is its GI50 below 2000 nM?
Data returned: f

Data request: A record lists `CC(C)=CCC/C(C)=C/CC/C(C)=C/CC[C@]1(C)CCc2c3c(cc(C)c2O1)OCN(CCCCCCO)C3` . Is its GI50 below 2000 nM?
Data returned: t
